# TARGET_DESC: T1, human MSR1 with a C-terminal Myc tag expressed on HEK293.Myc.hMSR1 cells (human, UniProt P21757 1-451)
# T1 sequence (looked up): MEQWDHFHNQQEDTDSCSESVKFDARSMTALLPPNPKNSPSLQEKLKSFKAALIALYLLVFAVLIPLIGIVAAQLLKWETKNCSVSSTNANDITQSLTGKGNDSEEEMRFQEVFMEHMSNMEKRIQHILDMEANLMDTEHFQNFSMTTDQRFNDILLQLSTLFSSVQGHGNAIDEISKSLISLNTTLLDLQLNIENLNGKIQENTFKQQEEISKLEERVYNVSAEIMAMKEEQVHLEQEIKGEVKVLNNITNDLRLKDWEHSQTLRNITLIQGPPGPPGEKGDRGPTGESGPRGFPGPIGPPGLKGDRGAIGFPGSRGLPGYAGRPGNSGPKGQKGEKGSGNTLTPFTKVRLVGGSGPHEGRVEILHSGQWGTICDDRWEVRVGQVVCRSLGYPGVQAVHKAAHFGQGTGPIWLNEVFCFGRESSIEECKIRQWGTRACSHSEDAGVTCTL
# ASSAY_NOTES: cell-based or functional assay
QUANTITY_NAME: % Inhibition of Dil-Acetylated LDL uptake (%)
Kindly answer with a numeric value in %, unit omitted.

Some binders with recorded % Inhibition of Dil-Acetylated LDL uptake:
{"BINDER": "H1H21227N (antibody, V domains shown) VH: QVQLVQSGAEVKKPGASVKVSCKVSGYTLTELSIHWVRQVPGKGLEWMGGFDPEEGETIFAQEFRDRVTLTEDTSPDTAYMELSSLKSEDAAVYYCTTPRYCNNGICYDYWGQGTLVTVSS VL: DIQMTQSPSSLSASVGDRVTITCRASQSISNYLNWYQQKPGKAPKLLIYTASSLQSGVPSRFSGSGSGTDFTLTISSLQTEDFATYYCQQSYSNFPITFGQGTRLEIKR", "RECORDED_MEASUREMENT": 65}
{"BINDER": "H1H21231N (antibody, V domains shown) VH: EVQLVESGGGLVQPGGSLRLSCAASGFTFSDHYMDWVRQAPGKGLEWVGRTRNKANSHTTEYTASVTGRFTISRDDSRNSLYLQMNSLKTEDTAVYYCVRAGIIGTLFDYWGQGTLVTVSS VL: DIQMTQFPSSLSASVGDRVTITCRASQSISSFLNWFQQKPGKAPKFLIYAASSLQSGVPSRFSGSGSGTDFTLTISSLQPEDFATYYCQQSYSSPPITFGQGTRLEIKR", "RECORDED_MEASUREMENT": 63}

Output % Inhibition of Dil-Acetylated LDL uptake of H2aM25700N (antibody, V domains shown) VH: QVQLVQSGSEVKKPGASVKVSCKVSGYTLTELSIHWVRQAPGKGLEWMGGFDPEDGETIYAQKFRGRVTMTEDISPDTAYMELSSLRSEDTAVYYCATPRYCNNGICYDYWGQGTLVTVSS VL: DIQMTQSPSSLSASIGDRVTITCRASQSISSYLNWYQQKPGKAPMLLIYAASSLQSGVPSRFSGSGSGTDFTLTISSLQTEDFATYYCQQSYSTPPITFGQGTRLEIKR
79
